Entries with their measured IC50, system human Glycogen Synthase Kinase-3 beta (hGSK-3β) (Homo sapiens):
Value Kind: IC50

# Compound, Result
rows = [
    ("CC(C)(C)OC(=O)N1C[C@@H]2CN(c3ccc4c(NC(=O)Nc5cnccn5)ccnc4c3)C[C@@H]2C1", "100 to 10000 nM"),
    ("COc1ccc2c(NC(=O)Nc3cccc(N4C[C@@H]5C[C@H]4CO5)n3)ccnc2c1", "< 100 nM"),
    ("COc1ccc2c(NC(=O)Nc3cccc(N4CC5COCC5C4)n3)ccnc2c1 (centres unmarked)", "< 100 nM"),
    ("O=C(Nc1cnccn1)Nc1ccnc2cc(N3CC4CCNC4C3)ccc12 (centres unmarked)", "100 to 10000 nM"),
    ("CC(C)(C)OC(=O)N1C[C@@H]2C[C@H]1CN2c1ccc2nccc(NC(=O)Nc3cnccn3)c2c1", "100 to 10000 nM"),
]
